assay: in vitro; format: cell-based; settings: human, cem cells, CC50 (50% cytostatic concentration), Table 2B; CEM cell proliferation; averages of 2 to 3 independent experiments
Listed next: entries and their corresponding CC50.

STRUCTURE_AS_SMILES: C#CCON=Cc1cc(NC(=S)c2ccoc2C)ccc1Cl
PREFIX_OPERATOR: =
CC50 (µg/mL): 10
--
STRUCTURE_AS_SMILES: CCC(CC)OC(=O)c1cc(NC(=S)c2ccoc2C)ccc1Cl
PREFIX_OPERATOR: =
CC50 (µg/mL): 16
--
STRUCTURE_AS_SMILES: C=CCOc1cc(NC(=S)c2sccc2C)ccc1OC
PREFIX_OPERATOR: =
CC50 (µg/mL): 7.1
--
STRUCTURE_AS_SMILES: C=CCOc1cc(NC(=S)c2ccoc2C)ccc1C#N
PREFIX_OPERATOR: >
CC50 (µg/mL): 100
--
STRUCTURE_AS_SMILES: Cc1sccc1C(=O)Nc1ccc(Cl)c(C(=O)OC(C)C)c1
PREFIX_OPERATOR: =
CC50 (µg/mL): 5.5
--
STRUCTURE_AS_SMILES: CSc1sccc1C(=O)Nc1ccc(Cl)c(C=NOC(C)(C)C)c1
PREFIX_OPERATOR: =
CC50 (µg/mL): 7.8
--
STRUCTURE_AS_SMILES: Cn1ccc(C(=S)Nc2ccc(Cl)c(C=NOC(C)(C)C)c2)c1
PREFIX_OPERATOR: =
CC50 (µg/mL): 13
--
STRUCTURE_AS_SMILES: Cc1sccc1C(=O)Nc1ccc(Cl)c(C(=O)OC(C(C)C)C(C)C)c1
PREFIX_OPERATOR: =
CC50 (µg/mL): 4.1
--
STRUCTURE_AS_SMILES: Cc1sccc1C(=O)Nc1ccc(Cl)c(C(=O)OC2CCCCC2)c1
PREFIX_OPERATOR: =
CC50 (µg/mL): 5.8
--
STRUCTURE_AS_SMILES: Cc1occc1C(=S)Nc1ccc(Cl)c(OC2CCCCC2)c1
PREFIX_OPERATOR: =
CC50 (µg/mL): 5.3
--
STRUCTURE_AS_SMILES: Cc1c(C(=S)Nc2ccc(Cl)c(C=NOC(C)(C)C)c2)ccn1C
PREFIX_OPERATOR: =
CC50 (µg/mL): 6.5
--
STRUCTURE_AS_SMILES: Cc1ccccc1C(=S)Nc1ccc(Cl)c(C(=O)OC2CCCCC2)c1
PREFIX_OPERATOR: =
CC50 (µg/mL): 4

----------
assay: in vitro; assay type: cell-based; details: human, cem cells, CC50 (50% cytostatic concentration), Table 2B; CEM cell proliferation; averages of 2 to 3 independent experiments
Parameter class (string): assigned from measured CC50. Ranges: bin A = under 6 µg/mL, bin B = from 6 µg/mL up to 10 µg/mL, bin C = 10 µg/mL and over

STRUCTURE_AS_SMILES: CC(C)C(OC(=O)c1cc(NC(=S)c2ccc[nH]2)ccc1Cl)C(C)C
LABEL: bin C
//
STRUCTURE_AS_SMILES: Cc1occc1C(=S)Nc1ccc(Cl)c(OCCC(C)C)c1
LABEL: bin C
//
STRUCTURE_AS_SMILES: CON=Cc1cc(NC(=O)c2ccoc2C)ccc1OC
LABEL: bin C
//
STRUCTURE_AS_SMILES: CC(C)=CCOc1cc(NC(=O)c2ccoc2C)ccc1Cl
LABEL: bin C
//
STRUCTURE_AS_SMILES: CC1=C(C(=O)Nc2ccc(Cl)c(OCCC(C)C)c2)SCCO1
LABEL: bin C
//
STRUCTURE_AS_SMILES: C=CCOc1cc(NC(=S)c2ccoc2C)ccc1OC
LABEL: bin C
//
STRUCTURE_AS_SMILES: Cc1occc1C(=S)Nc1ccc(Cl)c(OC(=O)OC(C)C)c1
LABEL: bin C
//
STRUCTURE_AS_SMILES: CCC(CC)COC(=O)c1cc(NC(=S)c2ccoc2C)ccc1Cl
LABEL: bin B
//
STRUCTURE_AS_SMILES: CC=CCSc1cc(NC(=O)c2ccsc2C)ccc1Cl
LABEL: bin A
//
STRUCTURE_AS_SMILES: Cc1ccccc1C(=O)Nc1ccc(Cl)c(C(=O)OC2CCCCC2)c1
LABEL: bin A
//
STRUCTURE_AS_SMILES: Cc1sccc1C(=S)Nc1ccc(Cl)c(C=NOC(C)(C)C)c1
LABEL: bin C
//
STRUCTURE_AS_SMILES: CC1=C(C(=O)Nc2ccc(Cl)c(C=NOC(C)(C)C)c2)CCCO1
LABEL: bin B
//
STRUCTURE_AS_SMILES: Cc1occc1C(=S)Nc1ccc(Cl)c(C=NOC(C)C)c1
LABEL: bin A
//
STRUCTURE_AS_SMILES: CC(C)OC(=O)c1cc(NC(=S)c2ccccc2)ccc1Cl
LABEL: bin A
//
STRUCTURE_AS_SMILES: CC(C)(C)ON=Cc1cc(NC(=S)c2ccccc2)ccc1Cl
LABEL: bin B
//
STRUCTURE_AS_SMILES: CCC(CC)OC(=O)c1cc(NC(=S)c2ccccc2N)ccc1Cl
LABEL: bin C
//
STRUCTURE_AS_SMILES: COc1ccccc1C(=S)Nc1ccc(Cl)c(C(=O)OC2CCCCC2)c1
LABEL: bin C
